System tested: BoLA-DRB3*2703 class II molecule (bovine)
Protocol notes: competitive peptide binding to pu
pIC50: −log10 of the molar value.
Experimental endpoint: pIC50

| Binder | Experimental endpoint | Value operator | Data value |
| --- | --- | --- | --- |
| QAVHAAHAEINE [OVA336[325-336]] | pIC50 | < | 3.49 |
| ISQAVHAAHAEINEAGR [OVA339[323-339]] | pIC50 | = | 4.14 |
| ISQAVHAAHAEIN [OVA335[323-335]] | pIC50 | = | 4.57 |
| DVNEFRAVTPLGRPDAE [Self-peptide DQ (unlabelled competitor)] | pIC50 | = | 4.79 |
| SSAESLKISQAV [OVA327[316-327]] | pIC50 | < | 3.49 |
